assay: Pharmacokinetics after intravenous and oral administration in rats; assay type: in vivo; conditions: rat, plasma; Rats; oral (p.o.) generally 5 or 10 mg/kg versus iv dosing
recorded-endpoint: bioavailability (%)
Give bare numbers, in %.

Solved cases (2 shown):
CC[C@H](Nc1ncnc(N)c1-c1nnn(C)n1)c1nc2cccc(-c3cnn(C)c3)c2c(=O)n1C1CC1; 67.7
Cc1nc(-c2c(N)ncnc2N[C@@H](C)c2nc3cccc(-c4cnn(C)c4)c3c(=O)n2-c2ccccc2)no1; 109

# per-item lookup of bioavailability; items listed below
1. Cc1noc(-c2c(N)ncnc2N[C@@H](C)c2nc3cccc(-c4cnn(C)c4)c3c(=O)n2-c2ccccc2)n1
2. Cc1nnc(-c2c(N)ncnc2N[C@@H](C)c2nc3cccc(-c4cnn(C)c4)c3c(=O)n2C2CC2)o1

Result block:
1: 70; 2: 71.7
